Each recorded value in this set is attributed to the supplement of paper PMC13380429.

# Test system: Vero E6 infected with SARS-CoV-2
# method: inhibition of SARS-CoV-2 cytopathic effect; higher = more antiviral protection, active = above 15
# conditionDetails: 1 nM; 48 h
propertyName: inhibition of SARS-CoV-2 cytopathic effect (%)

compound=Cc1ccc([N+](=O)[O-])cc1O outputunit=% valuemeasured=-2.8
compound=O=C(Nc1ccccc1Br)N[C@@H]1CCN(c2ccc(C(F)(F)F)cn2)C1 outputunit=% valuemeasured=3.02
compound="Oc1ccc(C2CNCCc3c2cc(O)c(O)c3Cl)cc1 (configuration not stated)" outputunit=% valuemeasured=5.49
compound=CN1CCN(Cc2ccc(Nc3ncc(Cl)c(Nc4ccccc4S(=O)(=O)N(C)C)n3)cc2)CC1 outputunit=% valuemeasured=1.64
compound=COc1cccc(OC)c1C(=O)N[C@@H]1C(=O)N2[C@@H]1SC(C)(C)[C@@H]2C(=O)O outputunit=% valuemeasured=-3.39
compound=CC1(C)S[C@@H]2[C@H](NC(=O)[C@H](NC(=O)N3CCNC3=O)c3ccccc3)C(=O)N2[C@H]1C(=O)O outputunit=% valuemeasured=-1.64
compound=Cc1ccccc1-n1c(CF)nc2ccc(N)cc2c1=O outputunit=% valuemeasured=-0.9
compound=CCOC(=O)N[C@@H]1CC[C@@H]2[C@@H](C1)C[C@H]1C(=O)O[C@H](C)[C@H]1[C@H]2/C=C/c1ccc(-c2cccc(F)c2)cn1 outputunit=% valuemeasured=-1.52
compound=Oc1ccc(-c2nc3cc(O)cc(Br)c3o2)cc1 outputunit=% valuemeasured=0.68
compound=CN(c1ccccc1CNc1nc(Nc2ccc3c(c2)CC(=O)N3)ncc1C(F)(F)F)S(C)(=O)=O outputunit=% valuemeasured=-0.17
compound=CC(=O)N1CCC(C(=O)N(CCCN2CCC(Cc3ccc(C(N)=O)cc3)CC2)c2ccc(C)c(Cl)c2)CC1 outputunit=% valuemeasured=0.74
compound=OCCN(CCO)c1nc(N2CCCCC2)c2nc(N(CCO)CCO)nc(N3CCCCC3)c2n1 outputunit=% valuemeasured=-0.67
compound="O=[N+]([O-])O[C@H]1CO[C@H]2[C@@H]1OC[C@H]2O[N+](=O)[O-] [isosorbide-dinitrate]" outputunit=% valuemeasured=-1.2
compound=CC(C)(Sc1cc(C(C)(C)C)c(O)c(C(C)(C)C)c1)Sc1cc(C(C)(C)C)c(O)c(C(C)(C)C)c1 outputunit=% valuemeasured=-0.06
compound=COc1cc2ncnc(Nc3ccc(F)c(Cl)c3)c2cc1OCCCN1CCOCC1 outputunit=% valuemeasured=-1.32
compound=COc1ccc(/C=C/CCCCOc2ccc(C(=O)c3cccc(C(=O)O)c3)cc2CCC(=O)O)cc1 outputunit=% valuemeasured=2.26
compound="CN(C)CCOC(=O)C(c1ccccc1)C1(O)CCCC1 (configuration not stated) [cyclopentolate]" outputunit=% valuemeasured=-1.73
